experimentSummary: viability loss in pontine glioma line – cell-based, SU-DIPG-XXV, MIPE5.0, CellTiter-Glo, qHTS, dose response (AID 1347065);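 also: cells exposed to compound for 48 hours before ATP readout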
experimentalSetup: CellTiter-Glo ATP luminescence
Inconclusive results are not listed. Calls of active or inactive are those of the source. The limit is not given here; nearly all actives have AC50 up to about 26 µM.
quantityKind: AC50

Examples with answers:
INSERT INTO assay_data (compound, measuredvalue) VALUES
  ('Cn1c(/C=C/CO)c(CO)c2c1C(=O)C=C(N1CC1)C2=O', 'inactive'),
  ('C[C@]12CC[C@@H]3c4ccc(OC(=O)N(CCCl)CCCl)cc4CC[C@H]3[C@@H]1CC[C@@H]2OP(=O)(O)O', 'inactive'),
  ('O=C1CC[C@@]2(O)[C@H]3Cc4ccc(O)c5c4[C@@]2(CCN3CC2CC2)[C@H]1O5', 'inactive'),
  ('CCOc1ccccc1-n1c(C(C)N2CCN(C(=O)COc3ccc(Cl)cc3)CC2)nc2ccccc2c1=O (stereo not drawn)', '18.6 µM (active)'),
  ('COc1ccc(N(C(=O)Oc2c(C)cccc2C)c2ccnc(Nc3ccc(N4CCN(C)CC4)cc3)n2)c(OC)c1', '10.5 µM (active)'),
  ('COc1ccc(C(=O)c2c(C)n(CCN3CCOCC3)c3cc(I)ccc23)cc1', '16.6 µM (active)');

Field request: AC50 | item: CCOP(=O)(OCC)C(C)NC(=O)N(CCCl)N=O (stereo not drawn)
inactive

Would you kindly share the measured AC50 for `CN(C)CCN(C)CCc1ccc(Cl)c(Cl)c1` ?
inactive

What does the data say about its AC50? Entry: `CC1(C)CC[C@]2(NC(=O)C(C)(F)F)CC[C@]3(C)[C@H](C(=O)C=C4[C@@]5(C)C=C(C#N)C(=O)C(C)(C)[C@@H]5CC[C@]43C)[C@@H]2C1`
9.34 µM (active)

Entry `CC(C)(NC(=O)O[C@@H]1CN2CCC1CC2)c1csc(-c2ccc(F)cc2)n1` : reported AC50 = ?
inactive

I would be grateful if you could share the reported AC50 for `O=C1C=CC[C@@H]2[C@H]3CCCN4CCC[C@@H](CN12)[C@@H]34` .
inactive

Value lookup for AC50; key = `C/C(=C\c1csc(C)n1)[C@@H]1C[C@@H]2O[C@]2(C)CCC[C@H](C)[C@H](O)[C@@H](C)C(=O)C(C)(C)[C@@H](O)CC(=O)O1`
0.00166 µM (active)

So what's the measured AC50 for this one? `CCOC(=O)Nc1ccc(NCc2ccc(F)cc2)cc1N`
inactive

Look up AC50 for this compound: `Cc1ccccn1.[Cl][Pt][Cl].[NH2-]`
inactive

# AC50 lookup, item `C[C@@H]1O[C@@H](O[C@H]2C[C@@H](O)[C@]3(CO)[C@H]4[C@H](O)C[C@]5(C)[C@@H](C6=CC(=O)OC6)CC[C@]5(O)[C@@H]4CC[C@]3(O)C2)[C@H](O)[C@H](O)[C@H]1O`
0.0934 µM (active)

Please give the measured AC50 for this compound: C=C[C@H]1CN2CCC1C[C@@H]2[C@@H](O)c1ccnc2ccccc12 (stereo partly drawn)
inactive

Need AC50 of `C#C[C@]1(O)C=C[C@H]2[C@@H]3CCC4=CC(=O)CC[C@@H]4[C@H]3CC[C@@]21CC` , thanks.
inactive

Quick one: AC50 for `CN[C@@H]1C[C@H]2O[C@@](C)([C@@H]1OC)n1c3ccccc3c3c4c(c5c6ccccc6n2c5c31)C(=O)NC4` ?
0.209 µM (active)

# AC50 lookup, item `NC(=O)[C@@H](CC1CC1)[C@@H](CCC(F)(F)F)C(=O)N[C@H]1N=C(c2ccccc2)c2cccc(F)c2NC1=O`
inactive

Suppose we examine the compound COCC1(CO)C(=O)C2CCN1CC2 (stereo not drawn) ; what AC50 value has been reported?
16.6 µM (active)

Look up AC50 for this compound: `CSCC[C@@H](NC(=O)[C@@H](Cc1ccccc1)NC(=O)CNC(=O)CNC(=O)[C@@H](N)Cc1ccc(O)cc1)C(=O)O`
inactive

May I ask what AC50 has been recorded for CC(O)(CS(=O)(=O)c1ccc(F)cc1)C(=O)Nc1ccc(C#N)c(C(F)(F)F)c1 (stereo not drawn) ?
inactive

I have this compound here, `C/C(=C\c1csc(C)n1)[C@@H]1C[C@@H]2O[C@@H]2CCC[C@H](C)[C@H](O)[C@@H](C)C(=O)C(C)(C)[C@@H](O)CC(=O)O1` , and I need its recorded AC50.
0.00934 µM (active)
